# TARGET_OF_ASSAY: alpha 2C receptor (Homo sapiens)
# Construct: expressed in transfected cells; host or cells: NIH-3T3 cells
# Sequence (P18825 1-462): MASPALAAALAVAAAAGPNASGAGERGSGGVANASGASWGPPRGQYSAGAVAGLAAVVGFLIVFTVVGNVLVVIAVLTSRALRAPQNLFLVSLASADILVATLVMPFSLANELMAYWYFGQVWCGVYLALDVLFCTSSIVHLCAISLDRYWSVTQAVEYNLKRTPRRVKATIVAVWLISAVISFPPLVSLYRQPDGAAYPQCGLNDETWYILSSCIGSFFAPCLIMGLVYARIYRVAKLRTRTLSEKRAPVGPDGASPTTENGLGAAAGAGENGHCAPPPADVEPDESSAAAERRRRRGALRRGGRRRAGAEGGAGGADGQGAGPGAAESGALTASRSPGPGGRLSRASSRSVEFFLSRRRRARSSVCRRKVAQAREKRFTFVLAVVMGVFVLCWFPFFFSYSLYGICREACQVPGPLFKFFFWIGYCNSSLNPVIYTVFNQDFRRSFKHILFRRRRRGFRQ
# TEST_NAME: Receptor Selection and Amplification technology (RSAT) assay, alpha 2C
# Format: cell-based
# TEST_CONTEXT: RSAT; number in parentheses; ratio of maximal effect to that of standard full agonist brimonidine (UK14304)
Measured Alpha 2C intrinsic activity (relative efficacy) values are reported for all entries that follow.
EXPERIMENTAL_ENDPOINT: Alpha 2C intrinsic activity (relative efficacy)

COMPOUND: Cc1ccccc1C(c1ccccc1)c1c[nH]cn1 (centres unmarked)
RESULT: .64

COMPOUND: Cc1cccc(C(c2ccccc2)c2c[nH]cn2)c1C (centres unmarked)
RESULT: 1.02

COMPOUND: Clc1cccc(C(c2ccccc2)c2c[nH]cn2)c1Cl (centres unmarked)
RESULT: .40

COMPOUND: Cc1c(Cl)cccc1C(c1ccccc1)c1c[nH]cn1 (centres unmarked)
RESULT: .35

* * *

# TARGET_OF_ASSAY: alpha 2B receptor (Homo sapiens, UniProt P18089)
# Construct: expressed in transfected cells; host or cells: NIH-3T3 cells
# TEST_NAME: Receptor Selection and Amplification technology (RSAT) assay, alpha 2B
# Format: cell-based
# TEST_CONTEXT: RSAT in transfected NIH-3T3 cells; number outside parentheses; read-out: Alpha 2B potency (EC50)
pEC50: −log10 of the molar value.
EXPERIMENTAL_ENDPOINT: pEC50

MOLECULE: Cc1c(Cl)cccc1C(c1ccccc1)c1c[nH]cn1 (stereo not drawn)
QUANTITATIVE_RESULT: 7.74

MOLECULE: Clc1cccc(C(c2ccccc2)c2c[nH]cn2)c1Cl (stereo not drawn)
QUANTITATIVE_RESULT: 8.16

MOLECULE: Cc1cccc(C(c2ccccc2)c2c[nH]cn2)c1C (stereo not drawn)
QUANTITATIVE_RESULT: 8.74

MOLECULE: Fc1cccc(C(c2ccccc2)c2c[nH]cn2)c1F (stereo not drawn)
QUANTITATIVE_RESULT: 7.21

MOLECULE: Fc1c(C(c2ccccc2)c2c[nH]cn2)cccc1C(F)(F)F (stereo not drawn)
QUANTITATIVE_RESULT: 7.68

MOLECULE: Fc1c(Cl)cccc1C(c1ccccc1)c1c[nH]cn1 (stereo not drawn)
QUANTITATIVE_RESULT: 7.36

* * *

Measured Alpha 2B intrinsic activity (relative efficacy) values are reported for all entries that follow.
# TARGET_OF_ASSAY: alpha 2B receptor (Homo sapiens, UniProt P18089)
# Construct: expressed in transfected cells; host or cells: NIH-3T3 cells
# Sequence (P18089 1-450): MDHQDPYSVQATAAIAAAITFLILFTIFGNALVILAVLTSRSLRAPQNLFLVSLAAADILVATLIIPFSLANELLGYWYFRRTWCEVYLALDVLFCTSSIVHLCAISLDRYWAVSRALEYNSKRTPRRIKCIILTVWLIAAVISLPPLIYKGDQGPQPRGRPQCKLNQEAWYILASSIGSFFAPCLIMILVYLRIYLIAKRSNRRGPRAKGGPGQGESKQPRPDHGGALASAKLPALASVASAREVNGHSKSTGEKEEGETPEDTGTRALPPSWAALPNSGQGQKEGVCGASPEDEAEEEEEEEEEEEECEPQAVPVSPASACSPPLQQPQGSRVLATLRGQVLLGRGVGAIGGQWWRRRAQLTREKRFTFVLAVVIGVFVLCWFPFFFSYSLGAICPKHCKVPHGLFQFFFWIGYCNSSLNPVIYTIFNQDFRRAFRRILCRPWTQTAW
# TEST_NAME: Receptor Selection and Amplification technology (RSAT) assay, alpha 2B
# Type: cell-based
# TEST_CONTEXT: RSAT; number in parentheses; ratio of maximal effect to that of standard full agonist brimonidine (UK14304)
EXPERIMENTAL_ENDPOINT: Alpha 2B intrinsic activity (relative efficacy)

MOLECULE: Cc1cccc(C(c2ccccc2)c2c[nH]cn2)c1C (centres unmarked)
QUANTITATIVE_RESULT: 1.23
//
MOLECULE: Fc1cccc(C(c2ccccc2)c2c[nH]cn2)c1F (centres unmarked)
QUANTITATIVE_RESULT: 1.10
//
MOLECULE: Clc1cccc(C(c2ccccc2)c2c[nH]cn2)c1Cl (centres unmarked)
QUANTITATIVE_RESULT: 1.19
//
MOLECULE: Fc1cccc(C(c2ccccc2)c2c[nH]cn2)c1 (centres unmarked)
QUANTITATIVE_RESULT: 1.00
//
MOLECULE: Cc1c(Cl)cccc1C(c1ccccc1)c1c[nH]cn1 (centres unmarked)
QUANTITATIVE_RESULT: 1.35

* * *

# TARGET_OF_ASSAY: alpha 2B receptor (Homo sapiens)
# Construct: expressed in transfected cells; host or cells: NIH-3T3 cells
# TEST_NAME: Receptor Selection and Amplification technology (RSAT) assay, alpha 2B
# Type: cell-based
pEC50: −log10 of the molar value.
EXPERIMENTAL_ENDPOINT: pEC50

MOLECULE: Fc1cccc(C(c2ccccc2)c2c[nH]cn2)c1 (centres unmarked)
EXPERIMENTAL_ENDPOINT: pEC50
QUANTITATIVE_RESULT: 6.48

MOLECULE: Cc1ccccc1C(c1ccccc1)c1c[nH]cn1 (centres unmarked)
EXPERIMENTAL_ENDPOINT: pEC50
QUANTITATIVE_RESULT: 7.26

* * *

# TARGET_OF_ASSAY: alpha 2C receptor (Homo sapiens, UniProt P18825)
# Construct: expressed in transfected cells; host or cells: NIH-3T3 cells
# TEST_NAME: Receptor Selection and Amplification technology (RSAT) assay, alpha 2C
# Assay type: cell-based
# TEST_CONTEXT: RSAT in transfected NIH-3T3 cells; number outside parentheses; read-out: Alpha 2C potency (EC50)
pEC50: −log10 of the molar value.

COMPOUND: Clc1cccc(C(c2ccccc2)c2c[nH]cn2)c1Cl (stereo not drawn)
pEC50: 6.48

COMPOUND: Cc1cccc(C(c2ccccc2)c2c[nH]cn2)c1C (stereo not drawn)
pEC50: 7.04

COMPOUND: Cc1c(Cl)cccc1C(c1ccccc1)c1c[nH]cn1 (stereo not drawn)
pEC50: 6.39

* * *

Measured Alpha 2B intrinsic activity (relative efficacy) values are reported for all entries that follow.
# TARGET_OF_ASSAY: alpha 2B receptor (Homo sapiens)
# Construct: expressed in transfected cells; host or cells: NIH-3T3 cells
# Sequence (P18089 1-450): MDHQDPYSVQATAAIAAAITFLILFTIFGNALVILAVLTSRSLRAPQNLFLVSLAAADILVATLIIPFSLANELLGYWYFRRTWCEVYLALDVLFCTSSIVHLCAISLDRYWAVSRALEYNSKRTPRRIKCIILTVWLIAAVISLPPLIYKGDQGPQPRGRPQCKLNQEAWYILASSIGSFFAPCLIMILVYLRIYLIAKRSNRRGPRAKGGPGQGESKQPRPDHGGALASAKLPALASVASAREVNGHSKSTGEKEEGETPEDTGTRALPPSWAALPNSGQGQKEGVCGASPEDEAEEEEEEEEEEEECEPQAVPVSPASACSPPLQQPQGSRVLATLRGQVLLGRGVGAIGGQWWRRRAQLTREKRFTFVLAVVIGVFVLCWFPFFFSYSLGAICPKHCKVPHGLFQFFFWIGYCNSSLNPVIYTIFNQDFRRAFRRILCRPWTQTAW
# TEST_NAME: Receptor Selection and Amplification technology (RSAT) assay, alpha 2B
# Type: cell-based
# TEST_CONTEXT: RSAT; number in parentheses; ratio of maximal effect to that of standard full agonist brimonidine (UK14304)
# Procedure: The RSAT assay measures a receptor-mediated loss of contact inhibition that results in selective proliferation of receptor-containing cells in a mixed population of confluent cells. The increase in cell number is assessed with an appropriate transfected marker gene such as β-galactosidase, the activity of which can be easily measured in a 96-well format. Receptors that activate the G protein, Gq, elicit this response. […]
EXPERIMENTAL_ENDPOINT: Alpha 2B intrinsic activity (relative efficacy)

MOLECULE: Fc1c(Cl)cccc1C(c1ccccc1)c1c[nH]cn1 (stereo not drawn)
RESULT: .91
--
MOLECULE: Cc1ccccc1C(c1ccccc1)c1c[nH]cn1 (stereo not drawn)
RESULT: .99
--
MOLECULE: Fc1c(C(c2ccccc2)c2c[nH]cn2)cccc1C(F)(F)F (stereo not drawn)
RESULT: .89
